System: SR
ASSAY_DETAILS: NCI tumour cell line growth inhibition, 48 h
Activity calls are given as the source filed them. No stated cut-off is given here; in the data, active = GI50 up to about 1.1 µM and inactive = higher.
Log the outcome using a class from active, inactive

C=CCOC1CC(n2cnc3c(N)ncnc32)OC1CO (stereo unspecified)    inactive
COC(=O)C1(C(=O)OC)C/C(C)=C(/C)SCCCS1    inactive
Cc1ccc(S(=O)(=O)c2c(N)c3nccn3c3nc4ccccc4nc23)cc1    inactive
C[n+]1c(-c2ccc(/C=C/C=N\NC(=O)c3ccc(C(=O)N/N=C\C=C\c4ccc(-c5cn6ccccc6[n+]5C)cc4)cc3)cc2)cn2ccccc21    inactive
COc1cc(C2c3cc4c(cc3OC(NCCO)C2C)OCO4)cc(OC)c1O (stereo unspecified)    inactive
O=C1CNc2cc(N3CCOCC3)ccc2N1    inactive
CCCCOC(=O)Nc1ccc(S(=O)(=O)Nc2ccccc2Cl)cc1    inactive
O=Cc1ccc2ccocc1-2    inactive

Ask | What did this assay record as the result for CC(C)(C)/N=C1\C(=O)C2(C)CCC1C2(C)C (stereo unspecified) ?
Reply | inactive

Ask | Can you handle CC1=C(N2CC2)C(=O)c2ccccc2C1=O next?
Reply | active

Ask | Also, COc1ccc2oc(C(=O)O)c3c2c1CCC3CCC(=O)O (stereo unspecified) please.
Reply | inactive

---

Tested on: NCI-H522
ASSAY_DETAILS: NCI tumour cell line growth inhibition, 48 h
The source made the active and inactive calls. Cut-off read from the data, not from the text of the source: active = GI50 up to about 1.1 µM and inactive = higher.
Tick one outcome: true for active, false for inactive

Worked cases, answers included:
Cc1c(NC(=S)NN)c(=O)n(-c2ccccc2)n1C    true
Cc1ccccc1C(=O)c1c(O)c2c(c(O)c1Br)CCCC2    false
Cc1cc2c(=O)[nH]nc(N)c2c(N)n1    false
C=C1CCC23CC(CC[C@@H]2[C@@]12C[C@@H](c1ccoc1)OC2=O)OC3=O (stereo partly specified)    false
COC(=O)C1(C(=O)OC)C/C(C)=C(/C)SCCCS1    false

Ask | Dear colleague, could you share the recorded outcome for CC(=O)Nc1ccc(Nc2nc(=O)[nH]c(=O)[nH]2)cc1 when you have a moment?
Reply | false

Ask | Further, for C/C(=N\N=C(/S)SCc1ccccc1)c1ccccn1 ?
Reply | true

Ask | Another compound to check: N#CCCc1nc2ccc(Br)cc2c(=O)n1-c1ccc(O)c([N+](=O)[O-])c1
Reply | false

Ask | Another compound: Cc1cc(S(=O)(=O)NC2=Nc3cccc(F)c3CN2)c(S)cc1Cl
Reply | false

---

Tested on: SNB-75
ASSAY_DETAILS: NCI tumour cell line growth inhibition, 48 h
Active and inactive are the calls of the source. Cut-off read from the data, not from the text of the source: active = GI50 up to about 1.1 µM and inactive = higher.
// allowed return values: active, inactive

Ask | Can you look up the reported call for Cc1ccc(S(=O)(=O)NC(=O)Nc2ccc(C(=O)O)cc2)cc1 for me?
Reply | inactive

Ask | Could you do the same for CCOc1cnc(C(O)(c2ccccc2)c2ccccc2)o1 , please?
Reply | inactive

Ask | // next record CCCCCCCCCCCCC(O)C1CCC(C(O)CCCCCCC(O)CCCCCCCC2=CC(C)OC2=O)O1 (stereo unspecified)
Reply | inactive

Ask | Another compound: CN(C)c1ccc(C=c2c3ccccc3n3c2c2c([n+]3C)CCCC2)cc1
Reply | active

Ask | Now the compound COc1cc(C2c3cc4c(cc3OC(NCCO)C2C)OCO4)cc(OC)c1O (stereo unspecified)
Reply | inactive

Ask | Now consider O=c1[nH]c(Nc2ccc(Br)c(C(F)(F)F)c2)nc2[nH]cnc12 and answer again.
Reply | inactive

Ask | // same read-out, input: Cc1cccc2c(=O)c([Se]c3coc4c(C)cccc4c3=O)coc12
Reply | inactive
